Target: Amine oxidase [flavin-containing] B (Homo sapiens, UniProt P27338)
Sequence (P27338 whole entry): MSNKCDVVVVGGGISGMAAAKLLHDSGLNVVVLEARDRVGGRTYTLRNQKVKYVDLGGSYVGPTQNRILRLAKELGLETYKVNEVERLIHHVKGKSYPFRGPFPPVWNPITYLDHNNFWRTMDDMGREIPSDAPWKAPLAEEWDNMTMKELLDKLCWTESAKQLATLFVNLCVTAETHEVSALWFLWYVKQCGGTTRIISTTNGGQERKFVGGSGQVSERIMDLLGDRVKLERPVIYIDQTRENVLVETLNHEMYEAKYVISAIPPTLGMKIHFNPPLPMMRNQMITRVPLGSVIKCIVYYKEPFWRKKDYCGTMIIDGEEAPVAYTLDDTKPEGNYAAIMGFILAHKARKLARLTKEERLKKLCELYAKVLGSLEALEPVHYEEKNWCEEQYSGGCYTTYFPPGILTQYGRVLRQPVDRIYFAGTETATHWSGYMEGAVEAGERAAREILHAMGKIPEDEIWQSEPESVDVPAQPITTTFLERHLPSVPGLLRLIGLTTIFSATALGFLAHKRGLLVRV
measuredEndpoint: IC50

- O=S(=O)(c1ccccc1)N1CCc2cc(C3CC3NCc3c[nH]c4ccccc34)ccc21 (trans isomer): > 100 µM

====

Biological target: Lysine-specific histone demethylase 1A (Homo sapiens, UniProt O60341)
measuredEndpoint: IC50

- O=S(=O)(c1ccccc1)N1CCc2cc(C3CC3NCc3c[nH]c4ccccc34)ccc21 (trans isomer) [US11873292, Compound A8]: 85.1 nM
